Hello, the source for this data is patent US11884668B1, in case you need it.

Test system: MCF7 (breast)
Assay: In vitro cytotoxic activity assay (MTT), MCF7
Format: cell-based
Settings: Homo sapiens; MCF7 (breast) cells, exposed for 96 hours; read-out: IC50, concentration of compound eliciting a 50% inhibition of cell proliferation
Readout type: IC50 (µM)

>  <Compound>
O=C(O)c1ccc2c(c1)nc(Nc1cccc(Cl)c1)c1[nH]c3ccncc3c12 [Compound 1]

>  <Readout type>
IC50

>  <Result units>
µM

>  <Experimental result>
4.1

$$$$

###

Tested on: A375 (melanoma)
Experiment: In vitro cytotoxic activity assay (MTT), A375
Assay type: cell-based
Conditions: Homo sapiens, A-375; A375 (melanoma) cells, exposed for 96 hours; read-out: IC50, concentration of compound eliciting a 50% inhibition of cell proliferation

>  <Cpd smiles>
O=C(O)c1ccc2c(c1)nc(Nc1cccc(Cl)c1)c1[nH]c3ccncc3c12

>  <IC50>
3.3 µM

$$$$
